Test system: CN0375-F725-PDC multi-cell spheroids, viability;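 note: spheroids exposed to drugs for seven days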
Assay: Anticancer human tumor CN0375-F725-PDC patient-derived colon carcinoma cell line growth inhibition [TAK]
Details: second compound 0.949 µM; first compound 0.00316 µM; active compounds read low
For each record, check the reported viability, T/C: if it is below 90% write T, else write F.

COc1c(OCCCN2CCOCC2)ccc2c3n(c(=NC(=O)c4cnc(N)nc4)nc12)CCN3 + CC(C)NCC(C(=O)N1CCN(c2ncnc3c2C(C)CC3O)CC1)c1ccc(Cl)cc1 | F
COC1CC2CCC(C)C(O)(O2)C(=O)C(=O)N2CCCCC2C(=O)OC(C(C)CC2CCC(OCCO)C(OC)C2)CC(=O)C(C)C=C(C)C(O)C(OC)C(=O)C(C)CC(C)C=CC=CC=C1C (stereo not given) + CC(C)NCC(C(=O)N1CCN(c2ncnc3c2C(C)CC3O)CC1)c1ccc(Cl)cc1 | T
CC(C)CC(NC(=O)CNC(=O)c1cc(Cl)ccc1Cl)B1OC(=O)CC(CC(=O)O)(C(=O)O)O1 (stereo not given) + CC(C)NCC(C(=O)N1CCN(c2ncnc3c2C(C)CC3O)CC1)c1ccc(Cl)cc1 | F
CC(C)CC(NC(=O)C(Cc1ccccc1)NC(=O)c1cnccn1)B(O)O (stereo not given) + CC(C)NCC(C(=O)N1CCN(c2ncnc3c2C(C)CC3O)CC1)c1ccc(Cl)cc1 | F
